apparent KD of K4 kissing-loop reporter listing for selected sequences.
- Tested on: K4 kissing-loop RNA reporter
- measurement.description: apparent KD of K4 kissing-loop reporter; higher = weaker reporter binding
- conditions.used: Eterna round: R107; input ligand: FMN 200 uM
measured.property: apparent KD of K4 kissing-loop reporter

sequence.entry	target.or.system	measured.property	experimental.value
GAUUCAGUGAUGUUGGAAGGCGAGCGGGAUACCAGCCAAGACUCAGGCCCUUGGCAGCCCACAUAUCCCAGGUAGAUAGUCGCUC [Same State - Theophylline A (Freestyle 11)]	K4 kissing-loop RNA reporter	apparent KD of K4 kissing-loop reporter	271 nM
AGGAUGUAGUGAUGUUAUAUAAGAAGUAAACGAGGACCGGUACGGCCGCCACUCGAAACGGCUACUAGCGCGUUGCGAGGUGUGC [ExTryptoA.Cf]	K4 kissing-loop RNA reporter	apparent KD of K4 kissing-loop reporter	425 nM
CCUUGGAUUAGCUGUACUUUUCUACGGGAUACCAGUGCGUAACACCACCCUUGGCAGCCCGAUUACCGGCAGUGAUGUUGCCUCU [theeternabot_sameState_KL_Theo_A_41]	K4 kissing-loop RNA reporter	apparent KD of K4 kissing-loop reporter	185 nM
AAUUAAUACAGAAGGAGCGUGAAAUUAUCUACUUUUAACUUAGCGAGUGAUGUUCGUUUUUCACAGGUAGGUCGCUGUAUAUUUA [JR_ExcArginiB_Sub009]	K4 kissing-loop RNA reporter	apparent KD of K4 kissing-loop reporter	167 nM
CUGCAACAUAACUUCUUCGUCCUAGAAGACUAGGAUAUCAGGAAACUGAGAAGGAGUCUCUGCAGUGAUGUUGCAGCUAGGACGA [[K]'-[F2]'-[F1]'-[F1]-[F2]-[K1]-[K2]-[F]''_Design3]	K4 kissing-loop RNA reporter	apparent KD of K4 kissing-loop reporter	195 nM
CCGCCAUCAUCAGAUACCAGACUGAUGGCGGUAACCGCCAAGCGAGUGAUGUUCGCAUCAGUCCCUUGGCAGCUGAUGAAGACUG [Theo B SS t4]	K4 kissing-loop RNA reporter	apparent KD of K4 kissing-loop reporter	255 nM
UUGACCUACUCAGGAUAUCCGCAGUGAUGUUGCGGUUGGCCUGAGCGGCAUGAAAAUCUUACUACAGGAGAAGGGAGAGGGUUAC [Atusgeis]	K4 kissing-loop RNA reporter	apparent KD of K4 kissing-loop reporter	117 nM
CCCUCACGAGUGAUGUUCGUAGGGUACAGUCAGGAUAUCAUGCGGUUGAGAAGGGACAGAGAGGGCGGCCACGGGUUGCUCCUCU [Lariusteza]	K4 kissing-loop RNA reporter	apparent KD of K4 kissing-loop reporter	183 nM
UGACUGGACUGAAGGAGCGCGCGAGACAAAGUCUCGAACUCUUAGUGAUGUUAAGAAAUAACGCAGGUAGGUCGCAGUCUAGUCU	K4 kissing-loop RNA reporter	apparent KD of K4 kissing-loop reporter	138 nM
UAGAAGAGAAGCGAUACCAGCGAAUGAAGAAGAUGAUGAAGCCAGUGAUGUUGGAAAGAACGCCCUUGGCAGCGCAAGAGAAGAU	K4 kissing-loop RNA reporter	apparent KD of K4 kissing-loop reporter	119 nM
CGAGUGAUGUUCGUUUUUUUAUUUUUUUGACAGGAUAUGCGGAAACGCAGAAGGGUCACCUUUGAGUUAAAAGAAUUUAAAUUAU [Ex FMN A 23]	K4 kissing-loop RNA reporter	apparent KD of K4 kissing-loop reporter	278 nM
GUGAUAUCGCAAGGAUAUCCAAUUUCUGCGGAUAAGUGAUGUUUGGCGCCGCCUCAGUUAUGGCAAGGAGAAGGUGCGGCCUAGC [theeternabot_sameState_KL_FMN_B_28]	K4 kissing-loop RNA reporter	apparent KD of K4 kissing-loop reporter	473 nM

* * *

- Tested on: K4 kissing-loop RNA reporter
- measurement.description: apparent KD of K4 kissing-loop reporter; higher = weaker reporter binding
- conditions.used: Eterna round: R107; input ligand: FMN 200 uM
Each item that follows carries a reported apparent KD of K4 kissing-loop reporter.
measured.property: apparent KD of K4 kissing-loop reporter (nM)

sequence.entry	experimental.value
CCGGCCCAGCCGGAUACCAGUGCGCCGCAGGGAACGGCGGGCCCAGAGUGAUGUUCGGGACACCCUUGGCAGCCGCCUGGGUCGU [#2 Same State - Theophylline B Attempt #28 (HarryS)]	414
AGGCACGAGCAAGGAUAUCGAGUAGAGUGAUGUUCUGCCUGGGUUGGCUCGGAAGGGCCUUCCCAGCGAGAAGGUGCUCGUGCCU [#2 Same State - FMN A Attempt #16 (HarryS)]	189
UGACUGGAUGGAAGGAGCGCUAAACUCCUAGUGAUGUUAGGGAUAUGAGGCAAAGCCUUGAAGCAGGUAGGUCGCCAUCUAGUCU [FiskerMod 26 - Jieux - Same State - Arginine B]	141

* * *

# apparent KD of K4 kissing-loop reporter values compiled below
- System: K4 kissing-loop RNA reporter;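 note: bound reporter read as fluorescence of individual clusters on recovered sequencing chips by microscopy, with normalized cluster intensities fitted with a binding model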
- measurement.description: apparent KD of K4 kissing-loop reporter; higher = weaker reporter binding
- conditions.used: Eterna round: R107; input ligand: FMN 200 uM

sequence.entry	apparent KD of K4 kissing-loop reporter (nM)
UUUCGGUUCUGAGGAUAUUCGGACAAAUAUAGUGAUGUUGUAUAAGGAGGAGGGUGUUGGGAGUGAGGAGAAGGCAGAAGAGGAU [ExFMNB.S]	838
UGUCAUUGGUCGGCCGCCACUGAAAUAAAAGAGUGAUGUUCUUAAAAGACGGACAAAGUCUGUCAUAGGACCGGGACCGAUGACU [TrypBS 24 #SwitchBubble #StaticStem]	662
AGGGACUCUUCGGAGUCCCGGUCAAGGGAUACCAGUGAUGUUGGUCACCCUUGGCAGCCCAGAAACCAAGCCACCAAAGGUGGCA [Omei KL Theo A Exc A v3]	117
ACAGUUGCUAGUGAUACCAGACUAGCACUACGUAGUAUGUCAAGUGAUGUUUGACAACUAGUCCCUUGGCAGCGCGAUACGACUG [#12 K4 Theophylline B Same State]	181
GUUAAAUAAAUGGGCAUAGUGAUGUUGUGUCGAGGACCGGUACGGCCGCCACUCGAGCUAGCAUGCCGGUCAUUAUGGGUAGUUU [theeternabot_exclusion_KL_Trp_A_46]	112
GGAUGGUAGGCGGCCGCCACUAAAACUGAACACAUACAAGCCAGUGAUGUUGGUAUGAUGGAGUAUAGGACCGGGCCUAGAUAGA [Exclusion - Tryptophan B (Freestyle 4)]	452
GGAUAGGAUAGAGGAUAUGGGUUAGGCAAGAAUAACUUGUCUAGUAAAUCCAUGAGGAGUGAUGUUCCAGAAGGCUGUCCUAUCG [MatMod 4 - Jieux - Exclusion - FMN B]	429
GUUGAUCAUGGAAGGAGCGCCCAUUGUCGACACGAGUGAUGUUCGUGUCGUUAAUUAUGAGGGCAGGUAGGUCGCCGUGUGCUUU [Soqugebi]	144
UGUGAACAAAAGUAGAGUGGACCACUAUAGCGAGGACCGGUACGGCCGCCACUCGUACAUGAAUUCAGUGAUGUUGAAAUGAGCU [whbob_EX_Tryp_A_t14]	234
CUCGUGGGUUUGAGAGGGUUUGUGGGAAGUGAGGAUAUUUAGGGAGAAAGAAGGCACUAUAAAAUAUAGUGAUGUUAUAUAAGGG [SSFMNA.L]	277
UGACUGGACUGAAGGAGCGCUAAACUCCUAGUGAUGUUAGGGAAACGAGACAAAGUCUCGAGGCAGGUAGGUCGCAGUCUAGUCU [FiskerMod 1 - Jieux - Same State - Arginine B]	254

* * *

- Tested on: MS2 coat protein
- measurement.description: apparent KD of MS2 coat protein, switch ON state; designed switch direction (-1 OFF switch, 1 ON switch): 1; higher = weaker reporter binding
- conditions.used: FMN input: 0 or 200 uM; Eterna round: R93 (includes R88 designs)
Form field: apparent KD of MS2 coat protein (one value per entry).
measured.property: apparent KD of MS2 coat protein (nM)

sequence.entry	measured.property	unit.tag	experimental.value
AAAAAACAUGAGGAUCACCCAUGUCCUCGGACGUGAGGAUAUGUACAGACUUCGGUCUGUACAGAAGGCACGAAAA [SS1 - 1036]	apparent KD of MS2 coat protein	nM	503
AGGAAACAUGAGGAUCACCCAUGUAGAAAUAUGGGAGGAUAUACAAAGACGAAAGUCAAAGUAGAAGGCCUAAAAA [Mat - Same State 1 - Mod - D151]	apparent KD of MS2 coat protein	nM	17.6
GAAAAACAUGAGGAUCACCCAUGUGACAACAUGGGAGGAUAUACGUGGACGAUAGUCAAAGUAGAAGGCCUAAAAG [Garnet 64]	apparent KD of MS2 coat protein	nM	71.7
AAAAGGGCGACACAGGAUAUGUUGACUCUAACAUGAGGAUCACCCAUGUGCGUUUAGGGUCGUGCGCAGAAGGGUGUAGCUCGGA [Orvele]	apparent KD of MS2 coat protein	nM	12.9
AAAAAACAUGAGGAUCACCCAUGUAAAAAAAUGGGAGGAUAUAUGAAAAAAAAAAAAAAAAUAGAAGGCCUGAAAA [same state 11]	apparent KD of MS2 coat protein	nM	399
AAUGAACAUGAGGAUCACCCAUGUUCUAACAGUUGAGGAUAUGUGGGUGAAAAUAGCACGGCAGAAGGCGAGUGUA [SameState1 Malc#20]	apparent KD of MS2 coat protein	nM	119
GAAAAACAUGAGGAUCACCCAUGUAAGAUAAACACAGGAUAUGCGAAAAGAAAGAAAGAAGCAGAAGGGUGAAAAG [Mat - Same State 1 - Tesla mod - 42]	apparent KD of MS2 coat protein	nM	15.2
AAAAAACAUGAGGAUCACCCAUGUAAAAAUAUGGGAGGAUAUUCAAACACGAAAGUGAAAGAAGAAGGCCUAAAAA [SS! MT 18]	apparent KD of MS2 coat protein	nM	15
GGGAAGAACAGAGAGGAUAUCCAAAGGAAAACAUGAGGAUCACCCAUGUAAAAGGAAGGAAAUUGGGAGAAGGCUCAAAAGAGAA [salish99-ss2-023]	apparent KD of MS2 coat protein	nM	32.5
AAAUAAAUGACUCAGGAUAUAUCAUAGAGUACAUGAGGAUCACCCAUGUUUUAAUAACAUGUUUGGUAGAAGGGAGUCAAUAAAU [LROPPY Same State 2 - v06_deltaG=1.99]	apparent KD of MS2 coat protein	nM	25.8
AAAAAGGAGAGAGAGGAUAUCCAAAGGAAAACAUGAGGAUCACCCAUGUAAAAGGUAGGAAAUUGGGAGAAGGCUCAAGAGAGAG [salish99-ss2-107]	apparent KD of MS2 coat protein	nM	17.6
